- System: Botrytis cinerea
- experiment: Test F: tomato Botrytis, preventive spray on tomato seedlings, disease rating
- Type: in vivo
- experimental_setup: 200 ppm
Listed here: items and their measured Percentage Disease Control, Test F.
# number only, unit % dropped from output

Indicate the recorded Percentage Disease Control, Test F value for this compound: COC(=O)NCc1cc(-c2ncn(-c3cccc(C(F)(F)F)c3)n2)ccc1Cl
0

Indicate the recorded Percentage Disease Control, Test F value for this compound: COC(=O)NCc1cc(-c2ccn(Cc3ccccc3Cl)n2)ccc1Cl
0

Indicate the recorded Percentage Disease Control, Test F value for this compound: CCCCn1nc(-c2ccc(Cl)c(CNC(=O)OC)c2)cc1C(F)(F)F
0
